- target.entity: CD73 on U138 human neuroglioma cells (Homo sapiens, UniProt P21589)
- Construct: U138 cells were obtained from ATCC and cultured in DMEM with 10% FBS; host or cells: U138 human neuroglioma cells
- Sequence (P21589 27-549): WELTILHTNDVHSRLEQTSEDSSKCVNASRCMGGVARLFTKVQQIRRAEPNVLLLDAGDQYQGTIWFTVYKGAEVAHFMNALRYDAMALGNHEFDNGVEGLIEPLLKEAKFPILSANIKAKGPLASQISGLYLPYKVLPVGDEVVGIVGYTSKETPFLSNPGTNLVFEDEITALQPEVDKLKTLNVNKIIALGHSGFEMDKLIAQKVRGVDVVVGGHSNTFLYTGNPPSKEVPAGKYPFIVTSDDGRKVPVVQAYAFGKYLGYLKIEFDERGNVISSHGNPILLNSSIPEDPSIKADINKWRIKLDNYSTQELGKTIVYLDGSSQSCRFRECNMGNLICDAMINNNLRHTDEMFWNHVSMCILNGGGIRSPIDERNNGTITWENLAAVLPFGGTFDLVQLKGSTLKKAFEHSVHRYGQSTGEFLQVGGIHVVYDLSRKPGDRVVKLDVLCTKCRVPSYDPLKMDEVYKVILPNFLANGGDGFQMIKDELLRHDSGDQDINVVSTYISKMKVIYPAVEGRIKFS
- method.description: CD73 Cell-Based Assay
- details: U138 cells, AMP substrate, 2 hours at 37° C., inorganic phosphate by malachite green
pIC50: −log10 of the molar value.
Exercise: state measured pIC50 for each of the compounds provided.

Solved entries (count: 4):
[
  {
    "compound": "O=P(O)(O)COC[C@H]1O[C@@H](n2ccc3c(N4CC5CCCC5C4)nc(Cl)nc32)[C@H](O)[C@@H]1O (stereo partly drawn) [Compound 103]",
    "value.observed": "> 8.00"
  },
  {
    "compound": "CC(C)(O)C#Cc1nc(NC2CCCC2)c2ccn([C@@H]3O[C@H](COCP(=O)(O)O)[C@@H](O)[C@H]3O)c2n1 [Compound 272]",
    "value.observed": "> 8.00"
  },
  {
    "compound": "CC(C)OC(=O)OCOP(=O)(O)COC[C@H]1O[C@@H](n2ccc3c(NC4CCCC4)nc(Cl)nc32)[C@H](O)[C@@H]1O [Compound 193]",
    "value.observed": "7.00 to 8.00"
  },
  {
    "compound": "O=P(O)(O)COC[C@H]1O[C@@H](n2ccc3c(NC4CCC(F)(F)C4)nc(Cl)nc32)[C@H](O)[C@@H]1O (stereo partly drawn) [Compound 101]",
    "value.observed": "> 8.00"
  }
]

Batch request: pIC50 for each of the following compounds.
1. O=P(O)(O)COC[C@H]1O[C@@H](n2ccc3c(NC4CCCC4)nc(OCCO)nc32)[C@H](O)[C@@H]1O [Compound 257]
2. C[C@@H](O)C#Cc1nc(NC2CCCC2)c2ccn([C@@H]3O[C@H](COCP(=O)(O)O)[C@@H](O)[C@H]3O)c2n1 [Compound 267]

Result ::
["> 8.00", "> 8.00"]

----------
- target.entity: CD73 on U138 human neuroglioma cells (Homo sapiens, UniProt P21589)
- Construct: U138 cells were obtained from ATCC and cultured in DMEM with 10% FBS; host or cells: U138 human neuroglioma cells
- method.description: CD73 Cell-Based Assay
- details: U138 cells, AMP substrate, 2 hours at 37° C., inorganic phosphate by malachite green
pIC50: −log10 of the molar value.
Exercise: state measured pIC50 for each of the molecules provided.

Solved entries (count: 4):
[
  {
    "substance.smiles": "O=P(O)(O)COC[C@H]1O[C@@H](n2ccc3c(NC4CCCC4)nc(Oc4cccnc4)nc32)[C@H](O)[C@@H]1O",
    "assay.endpoint": "pIC50",
    "value.observed": "6.00 to 7.00"
  },
  {
    "substance.smiles": "Nc1nc(Cl)nc2c1ccn2[C@@H]1O[C@H](COCP(=O)(O)O)[C@@H](O)[C@H]1O",
    "assay.endpoint": "pIC50",
    "value.observed": "6.00 to 7.00"
  },
  {
    "substance.smiles": "O=P(O)(O)CS(=O)(=O)C[C@H]1O[C@@H](n2ccc3c(NC4CCC4)nc(Cl)nc32)[C@H](O)[C@@H]1O",
    "assay.endpoint": "pIC50",
    "value.observed": "> 8.00"
  },
  {
    "substance.smiles": "O=P(O)(O)COC[C@H]1O[C@@H](n2cnc3c(-c4ccccc4)ncnc32)[C@H](O)[C@@H]1O",
    "assay.endpoint": "pIC50",
    "value.observed": "< 6.00"
  }
]

Batch request: pIC50 for each of the following molecules.
1. C[C@H](Nc1nc(Cl)nc2c1ccn2[C@@H]1O[C@H](CS(=O)(=O)CP(=O)(O)O)[C@@H](O)[C@H]1O)c1ccc(C#N)cc1
2. N#Cc1nc(NC2CCCC2)c2cnn([C@@H]3O[C@H](CS(=O)(=O)CP(=O)(O)O)[C@@H](O)[C@H]3O)c2n1

Result ::
1: > 8.00; 2: > 8.00

Query :: Give pIC50 for N#Cc1nc(NC2CCCC2)c2ccn([C@@H]3O[C@H](COCP(=O)(O)O)[C@@H](O)[C@H]3O)c2n1
Result :: > 8.00

----------
Exercise: state measured IC50 for each of the molecules provided.
- target.entity: CD73 on U138 human neuroglioma cells (Homo sapiens, UniProt P21589)
- Construct: U138 cells were obtained from ATCC and cultured in DMEM with 10% FBS; host or cells: U138 human neuroglioma cells
- method.description: CD73 Cell-Based Assay
- details: U138 cells, AMP substrate, 2 hours at 37° C., inorganic phosphate by malachite green
- Protocol: U138 human neuroglioma cells were used in these experiments. U138 cells were obtained from ATCC and cultured in DMEM with 10% FBS. 2500 cells were seeded into 96-well plate with 100 μL of media the day before the experiment. […] 50 μL of supernatant was transferred to a 96-well assay plate and the concentration of inorganic phosphate was determined using malachite green reagent (R&D System; Cat: DY996).

Batch request: IC50 for each of the following molecules.
1. C[C@@H](Nc1cc(Cl)nc2c1ccn2[C@@H]1O[C@H](COCP(=O)(O)O)[C@@H](O)[C@H]1O)c1ccccc1
2. CC(C)Nc1nc(C#N)nc2c1ccn2[C@@H]1O[C@H](COCP(=O)(O)O)[C@@H](O)[C@H]1O
3. N#Cc1nc(NC2CCC(F)(F)CC2)c2ccn([C@@H]3O[C@H](COCP(=O)(O)O)[C@@H](O)[C@H]3O)c2n1
4. N#Cc1nc(N2CCC(F)(F)C2)c2cnn([C@@H]3O[C@H](CS(=O)(=O)CP(=O)(O)O)[C@@H](O)[C@H]3O)c2n1
5. N#Cc1nc(NC2CCC2)c2ccn([C@@H]3O[C@H](COCP(=O)(O)O)[C@@H](O)[C@H]3O)c2n1
6. O=P(O)(O)COC[C@H]1O[C@@H](n2ccc3c(NC4CCCC4)nc(C#CC4CC4)nc32)[C@H](O)[C@@H]1O

Result ::
1: 10 to 100 nM; 2: < 10 nM; 3: < 10 nM; 4: 10 to 100 nM; 5: < 10 nM; 6: < 10 nM

Batch request: IC50 for each of the following molecules.
1. C[C@H](Nc1nc(Cl)nc2c1c(F)cn2[C@@H]1O[C@H](COCP(=O)(O)O)[C@@H](O)[C@H]1O)c1ccccc1
2. CN(C)c1nc(C#N)nc2c1ccn2[C@@H]1O[C@H](COCP(=O)(O)O)[C@@H](O)[C@H]1O
3. O=P(O)(O)CS(=O)(=O)C[C@H]1O[C@@H](n2ncc3c(NC4CCCC4)nc(Cl)nc32)[C@H](O)[C@@H]1O
4. O=P(O)(O)COC[C@H]1O[C@@H](n2cnc3c(NCc4ccccc4)nc(Cl)nc32)[C@H](O)[C@@H]1O
5. C[C@H](Nc1ncnc2c1ncn2[C@@H]1O[C@H](COCP(=O)(O)O)[C@@H](O)[C@H]1O)c1ccc(F)cc1

Result ::
10 to 100 nM
10 to 100 nM
< 10 nM
10 to 100 nM
10 to 100 nM

Batch request: IC50 for each of the following molecules.
1. C[C@H](Nc1nc(Cl)nc2c1ccn2[C@@H]1O[C@H](COCP(=O)(O)O)[C@@H](O)[C@H]1O)c1ccccc1
2. O=P(O)(O)COC[C@H]1O[C@@H](c2csc3c(N4CC5CCCC5C4)nc(Cl)nc23)[C@H](O)[C@@H]1O (some centres unmarked)
3. N#Cc1nc(NC2CCC2)c2cnn([C@@H]3O[C@H](CS(=O)(=O)CP(=O)(O)O)[C@@H](O)[C@H]3O)c2n1

Result ::
["10 to 100 nM", "< 10 nM", "< 10 nM"]
